The measurements presented in this section are drawn from patent US20160137639A1.

Molecular target: mouse RORγ (Mus musculus, UniProt P51450)
Construct: mouse, NM_011281.2 and from Ile251 to Lys516; expressed in transfected cells; host or cells: CHO cells (transient co-transfection with pG5-Luc reporter)
Sequence (P51450 251-516): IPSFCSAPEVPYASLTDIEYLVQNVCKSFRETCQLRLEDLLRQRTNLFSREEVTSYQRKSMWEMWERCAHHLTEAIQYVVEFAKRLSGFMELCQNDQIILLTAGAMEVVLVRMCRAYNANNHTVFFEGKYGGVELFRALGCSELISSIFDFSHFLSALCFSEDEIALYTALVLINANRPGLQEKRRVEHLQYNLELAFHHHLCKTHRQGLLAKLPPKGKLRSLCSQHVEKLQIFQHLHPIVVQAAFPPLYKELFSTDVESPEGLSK
Assay: Luciferase reporter gene assay of inhibitory effect against RORγ transcriptional activity (GAL4-mRORγ plasmid in CHO cells)
Format: cell-based
Conditions: read-out: LUC EC50 (μM) mRORg
Reported Metric: EC50

Would you please look over these solved cases?
CC1(Cc2cc(-c3onc([C@@H](CCC(=O)O)CC(=O)Nc4ccc(F)cc4Cl)c3C3CC3)no2)CC1 [Example E-63]: < 3 µM
Cc1ccc(NC(=O)CC(CC#N)c2nnc(CCCC(C)(C)C)n2C2CC2)c(C)c1 (racemic) [Example F-440]: < 3 µM
CC(=O)N1C[C@H](C(=O)Nc2ccc(C)cc2C)[C@@H](c2nnc(-c3ccc(CC(C)C)cc3)n2C2CC2)C1 [Example F-406]: < 3 µM

Kindly review the next compound as well.
Prompt: Write down EC50 measured for item Cc1c(F)cccc1CNC(=O)CCc1nnc(CCC(C)C)n1C1CC1 [Example F-126]
Completion: > 3 µM

###

Molecular target: mouse RORγ (Mus musculus, UniProt P51450)
Construct: mouse, NM_011281.2 and from Ile251 to Lys516; expressed in transfected cells; host or cells: CHO cells (transient co-transfection with pG5-Luc reporter)
Sequence (P51450 251-516): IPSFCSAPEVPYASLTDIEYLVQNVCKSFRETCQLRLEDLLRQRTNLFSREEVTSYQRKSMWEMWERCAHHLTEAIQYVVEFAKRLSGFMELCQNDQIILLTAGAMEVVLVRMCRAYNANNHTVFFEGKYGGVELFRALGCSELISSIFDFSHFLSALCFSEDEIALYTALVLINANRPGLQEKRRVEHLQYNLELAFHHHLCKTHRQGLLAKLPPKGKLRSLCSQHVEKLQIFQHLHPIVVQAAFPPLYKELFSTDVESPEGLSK
Assay: Luciferase reporter gene assay of inhibitory effect against RORγ transcriptional activity (GAL4-mRORγ plasmid in CHO cells)
Format: cell-based
Conditions: read-out: LUC EC50 (μM) mRORg
Reported EC50 values are given for each entry in this list.

Would you please look over these solved cases?
CCn1c(CCC(=O)Nc2ccc(C)cc2C)nnc1CCC1CCCCC1: < 3 µM
COc1cc(C)ccc1CNC(=O)CCc1nnc(CCCC(C)C)n1C1CC1: < 3 µM
Cc1ccc(NC(=O)C[C@H](CCO)c2nnc(CCCC(C)(C)C)n2C2CC2)c(C)c1: < 3 µM
Cc1ccc(NC(=O)C[C@H](CCC(=O)O)c2noc(-c3cc(CCC(C)C)on3)c2C2CC2)c(F)c1: < 3 µM
Cc1ccc(NC(=O)CC(CCN(C)C)c2nnc(CCCC(C)C)n2C2CC2)c(C)c1 (racemic): > 3 µM
CCn1c(CCC(=O)Nc2cccc3ccccc23)nnc1C1Cc2ccccc2C1: < 3 µM
CNC(=O)CO[C@@H](CC(=O)Nc1ccc(C)cc1C)c1nnc([C@H]2C[C@@H](CC(C)C)C2)n1C1CC1: < 3 µM
COc1cc(C)ccc1CNC(=O)[C@H]1CCCN(C)[C@@H]1c1nnc(CCC2CCCCC2)n1C1CC1: < 3 µM
Cc1ccc(NC(=O)C(C)C(CCO)c2nnc([C@H]3C[C@@H](CC(C)C)C3)n2C2CC2)c(C)c1 (single isomer, unassigned) [Example F-491]: < 3 µM
Cc1ccc(NC(=O)CC(CCN2C(=O)c3ccccc3C2=O)c2nnc(CCCC(C)C)n2C2CC2)c(C)c1 (racemic): < 3 µM

Kindly review the next compound as well.
Prompt: Look up mouse RORγ (Mus musculus, UniProt P51450) data: EC50 of `Cc1c(Cl)cccc1NC(=O)CCc1nnc(C2CN(CC(C)C)C2)n1C1CC1` , then report it.
Completion: > 3 µM
